test: Concentration of test compound in eye tissue and blood after transocular administration of ophthalmic solution (EIA); assay type: in vivo, JW (clean) strain female rabbits; settings: topical or ocular; Sclera; 30 min. after transocular administration of ophthalmic solution (total 1 mg/rabbit); n = 6; read-out: Mean concentration in tissue ± S.E.
Test readout: concentration at 0.5 h (ng/g)
One number for each entry, in ng/g.

Measured concentration at 0.5 h of CNC(=O)OC1CCC2(CO2)C(C2(C)OC2CC=C(C)C)C1OC (stereo not shown) : 0.78

* * *

assay: Concentration of test compound in eye tissue and blood after continuous subcutaneous administration by implanted mini-pump (EIA); format: in vivo, JW (clean) strain female rabbits; conditions: sc, 2.5 mg/animal/day; Sclera; Day 5 of continuous subcutaneous administration (2.5 mg/rabbit/day); n = 6; read-out: Mean concentration in tissue ± S.E.
Test readout: concentration at 120 h
Enter the number, and then the unit.

Measured concentration at 120 h of CNC(=O)OC1CCC2(CO2)C(C2(C)OC2CC=C(C)C)C1OC (stereo not shown) [test compound] : 1.06 ng/g
